- STUDY_TARGET: cloned human or rodent CNS receptors, channels, and transporters (PDSP panel) (Homo sapiens, UniProt P28221)
- Construct: expressed in transfected cells
- Sequence (P28221 whole entry): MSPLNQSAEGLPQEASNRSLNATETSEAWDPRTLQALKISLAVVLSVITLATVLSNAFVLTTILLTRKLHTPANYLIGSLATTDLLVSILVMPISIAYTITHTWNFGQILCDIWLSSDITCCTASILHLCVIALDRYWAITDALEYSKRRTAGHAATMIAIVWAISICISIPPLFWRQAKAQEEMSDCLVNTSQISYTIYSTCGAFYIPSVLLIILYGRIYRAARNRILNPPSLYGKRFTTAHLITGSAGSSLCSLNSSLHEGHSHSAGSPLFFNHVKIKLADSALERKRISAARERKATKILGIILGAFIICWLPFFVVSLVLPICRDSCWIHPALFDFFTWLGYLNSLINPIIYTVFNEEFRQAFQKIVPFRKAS
- TEST: PDSP GPCR panel primary binding assays at 10 μM
- EXPERIMENTAL_CONDITIONS: 5-HT1D; primary assay, replicate 3
MEASURE_NAME: Inhibition 3 (%)
Write the value in % as a bare number.

Looking up CC(=O)N1CCC(NC(=O)NC23CC4CC(CC(C4)C2)C3)CC1 [UNC10302683A, AR9281] , I found its Inhibition 3 recorded as 4.06

Looking up O=C(NC1CC1)C(=O)C(Cc1ccccc1)NC(=O)[C@H]1CCC(=O)N1Cc1ccccc1 (stereo partly shown) [UNC10302676A, ABT-957 (Alicapistat)] , I found its Inhibition 3 recorded as 8.22

Looking up CCC(=O)N1CCC(NC(=O)Nc2ccc(OC(F)(F)F)cc2)CC1 [UNC10302681A, TPPU] , I found its Inhibition 3 recorded as -7.6

Looking up CNc1nc(C)nc(N[C@H]2CCC[C@@H](C(=O)NCc3ccc(C#N)cc3C(F)(F)F)C2)n1 [UNC10302679A, GSK2256294A] , I found its Inhibition 3 recorded as 1.56

---

- System: cloned human or rodent CNS receptors, channels, and transporters (PDSP panel)
- TEST: PDSP GPCR panel primary binding assays at 10 μM
- EXPERIMENTAL_CONDITIONS: Receptor Sigma 2; primary assay, 10 μM
MEASURE_NAME: Inhibition 2 (%)
Write the value in % as a bare number.

Looking up Cl.NC(=O)c1cnc(N[C@@H]2CCCC[C@@H]2N)nc1Nc1cccc(-n2nccn2)c1 [UNC10302682A, P505-15 (PRT06207 HCl)] , I found its Inhibition 2 recorded as 56.94

Looking up c1cn2cc(-c3ccc4cn[nH]c4c3)nc(Nc3ccc(N4CCOCC4)cc3)c2n1 [UNC10302678A, Entospletinib (GS-9973)] , I found its Inhibition 2 recorded as -1.79

Looking up CCCCNc1ncc2c(-c3ccc(CN4CCN(C)CC4)cc3)cn([C@H]3CC[C@H](O)CC3)c2n1 [UNC2025C, UNC2025] , I found its Inhibition 2 recorded as 96.04

Looking up O=c1oc2ccccc2cc1-c1cn2cc(Cc3ccc(F)cc3)sc2n1 [UNC10302680A, iMDK] , I found its Inhibition 2 recorded as 15.13

---

Consider the following compounds; for each one, report its Inhibition 1.
- STUDY_TARGET: cloned human or rodent CNS receptors, channels, and transporters (PDSP panel) (Homo sapiens, UniProt P08912)
- Construct: expressed in transfected cells
- Sequence (P08912 1-532): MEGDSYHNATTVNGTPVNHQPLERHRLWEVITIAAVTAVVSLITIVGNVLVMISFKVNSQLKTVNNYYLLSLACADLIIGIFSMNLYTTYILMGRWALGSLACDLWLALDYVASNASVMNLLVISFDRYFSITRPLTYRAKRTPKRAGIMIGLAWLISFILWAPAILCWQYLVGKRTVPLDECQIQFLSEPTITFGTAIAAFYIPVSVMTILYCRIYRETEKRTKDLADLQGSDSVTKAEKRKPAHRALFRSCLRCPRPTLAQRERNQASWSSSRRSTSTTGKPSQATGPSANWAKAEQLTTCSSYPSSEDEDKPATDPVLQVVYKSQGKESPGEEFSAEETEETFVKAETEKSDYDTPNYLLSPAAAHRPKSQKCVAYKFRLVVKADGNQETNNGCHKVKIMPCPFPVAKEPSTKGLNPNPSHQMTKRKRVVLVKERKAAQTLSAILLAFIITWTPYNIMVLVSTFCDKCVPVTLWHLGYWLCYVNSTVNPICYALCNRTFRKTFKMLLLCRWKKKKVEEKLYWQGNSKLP
- TEST: PDSP GPCR panel primary binding assays at 10 μM
- EXPERIMENTAL_CONDITIONS: Receptor M5; primary assay, 10 μM
Write the value in % as a bare number.

Looking up c1cn2cc(-c3ccc4cn[nH]c4c3)nc(Nc3ccc(N4CCOCC4)cc3)c2n1 [UNC10302678A, Entospletinib (GS-9973)] , I found its Inhibition 1 recorded as -6.98

Looking up O=c1oc2ccccc2cc1-c1cn2cc(Cc3ccc(F)cc3)sc2n1 [UNC10302680A, iMDK] , I found its Inhibition 1 recorded as -0.74

Looking up CCCCNc1ncc2c(-c3ccc(CN4CCN(C)CC4)cc3)cn([C@H]3CC[C@H](O)CC3)c2n1 [UNC2025C, UNC2025] , I found its Inhibition 1 recorded as 16.16

Looking up Cl.NC(=O)c1cnc(N[C@@H]2CCCC[C@@H]2N)nc1Nc1cccc(-n2nccn2)c1 [UNC10302682A, P505-15 (PRT06207 HCl)] , I found its Inhibition 1 recorded as 25.92

---

- Tested on: cloned human or rodent CNS receptors, channels, and transporters (PDSP panel)
- TEST: PDSP GPCR panel primary binding assays at 10 μM
- EXPERIMENTAL_CONDITIONS: Receptor Alpha2C; primary assay, 10 μM
Consider the following compounds; for each one, report its Inhibition 3.
Write the value in % as a bare number.

Looking up O=c1oc2ccccc2cc1-c1cn2cc(Cc3ccc(F)cc3)sc2n1 [UNC10302680A, iMDK] , I found its Inhibition 3 recorded as 5.64

Looking up CCCCNc1ncc2c(-c3ccc(CN4CCN(C)CC4)cc3)cn([C@H]3CC[C@H](O)CC3)c2n1 [UNC2025C, UNC2025] , I found its Inhibition 3 recorded as 26.65

Looking up Cl.NC(=O)c1cnc(N[C@@H]2CCCC[C@@H]2N)nc1Nc1cccc(-n2nccn2)c1 [UNC10302682A, P505-15 (PRT06207 HCl)] , I found its Inhibition 3 recorded as 14.79

Looking up c1cn2cc(-c3ccc4cn[nH]c4c3)nc(Nc3ccc(N4CCOCC4)cc3)c2n1 [UNC10302678A, Entospletinib (GS-9973)] , I found its Inhibition 3 recorded as 3.37

---

- STUDY_TARGET: cloned human or rodent CNS receptors, channels, and transporters (PDSP panel) (Homo sapiens, UniProt P25100)
- Construct: expressed in transfected cells
- Sequence (P25100 whole entry): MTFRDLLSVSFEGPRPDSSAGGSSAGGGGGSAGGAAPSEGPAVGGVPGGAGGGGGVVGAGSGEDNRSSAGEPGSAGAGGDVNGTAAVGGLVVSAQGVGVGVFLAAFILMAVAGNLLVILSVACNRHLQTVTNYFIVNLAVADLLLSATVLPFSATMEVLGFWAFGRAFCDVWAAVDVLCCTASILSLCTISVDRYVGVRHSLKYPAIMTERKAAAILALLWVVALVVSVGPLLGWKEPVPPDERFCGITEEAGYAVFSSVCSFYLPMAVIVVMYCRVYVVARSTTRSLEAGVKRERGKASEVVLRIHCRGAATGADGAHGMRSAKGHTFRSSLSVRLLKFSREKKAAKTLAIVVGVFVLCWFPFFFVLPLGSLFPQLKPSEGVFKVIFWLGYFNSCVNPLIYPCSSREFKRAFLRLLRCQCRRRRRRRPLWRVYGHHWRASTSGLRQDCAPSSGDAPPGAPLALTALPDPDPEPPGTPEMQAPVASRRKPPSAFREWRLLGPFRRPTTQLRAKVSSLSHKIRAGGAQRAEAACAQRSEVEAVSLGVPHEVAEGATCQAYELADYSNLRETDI
- TEST: PDSP GPCR panel primary binding assays at 10 μM
- EXPERIMENTAL_CONDITIONS: Alpha1D; primary assay, replicate 1
Consider the following compounds; for each one, report its Inhibition 1.
Write the value in % as a bare number.

Looking up O=C(NC1CC1)C(=O)C(Cc1ccccc1)NC(=O)[C@H]1CCC(=O)N1Cc1ccccc1 (stereo partly shown) [UNC10302676A, ABT-957 (Alicapistat)] , I found its Inhibition 1 recorded as 4.8

Looking up CNc1nc(C)nc(N[C@H]2CCC[C@@H](C(=O)NCc3ccc(C#N)cc3C(F)(F)F)C2)n1 [UNC10302679A, GSK2256294A] , I found its Inhibition 1 recorded as -4.16

Looking up CC(=O)N1CCC(NC(=O)NC23CC4CC(CC(C4)C2)C3)CC1 [UNC10302683A, AR9281] , I found its Inhibition 1 recorded as 7.07

Looking up CCC(=O)N1CCC(NC(=O)Nc2ccc(OC(F)(F)F)cc2)CC1 [UNC10302681A, TPPU] , I found its Inhibition 1 recorded as -5.01

---

- STUDY_TARGET: cloned human or rodent CNS receptors, channels, and transporters (PDSP panel) (Homo sapiens, UniProt P35462)
- Construct: expressed in transfected cells
- Sequence (P35462 whole entry): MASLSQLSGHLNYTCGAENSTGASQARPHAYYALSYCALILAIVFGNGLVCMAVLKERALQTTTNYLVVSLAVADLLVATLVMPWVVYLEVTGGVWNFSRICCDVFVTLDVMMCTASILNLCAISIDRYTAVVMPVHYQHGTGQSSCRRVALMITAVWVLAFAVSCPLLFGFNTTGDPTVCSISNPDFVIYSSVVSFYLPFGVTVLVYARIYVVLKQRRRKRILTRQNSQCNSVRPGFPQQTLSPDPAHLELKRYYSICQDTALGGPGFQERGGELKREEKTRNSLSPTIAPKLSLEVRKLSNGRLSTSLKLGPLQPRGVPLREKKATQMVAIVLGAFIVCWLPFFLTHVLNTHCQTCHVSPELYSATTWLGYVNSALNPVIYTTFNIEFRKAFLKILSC
- TEST: PDSP GPCR panel primary binding assays at 10 μM
- EXPERIMENTAL_CONDITIONS: D3; primary assay, replicate 3
Consider the following compounds; for each one, report its Inhibition 3.
Write the value in % as a bare number.

Looking up O=c1oc2ccccc2cc1-c1cn2cc(Cc3ccc(F)cc3)sc2n1 [UNC10302680A, iMDK] , I found its Inhibition 3 recorded as -16.41

Looking up O=C(NC1CC1)C(=O)C(Cc1ccccc1)NC(=O)[C@H]1CCC(=O)N1Cc1ccccc1 (some centres unmarked) [UNC10302676A, ABT-957 (Alicapistat)] , I found its Inhibition 3 recorded as 23.48

Looking up CNc1nc(C)nc(N[C@H]2CCC[C@@H](C(=O)NCc3ccc(C#N)cc3C(F)(F)F)C2)n1 [UNC10302679A, GSK2256294A] , I found its Inhibition 3 recorded as -11.4

Looking up CCC(=O)N1CCC(NC(=O)Nc2ccc(OC(F)(F)F)cc2)CC1 [UNC10302681A, TPPU] , I found its Inhibition 3 recorded as -5.04

Looking up CC(=O)N1CCC(NC(=O)NC23CC4CC(CC(C4)C2)C3)CC1 [UNC10302683A, AR9281] , I found its Inhibition 3 recorded as -8.7
